Molecular target: PDE4D5 (Homo sapiens, UniProt Q08499)
Construct: stably expressed the full-length human PDE4D5, PDE4B1 and PDE4A4 long isoforms; made in house
Sequence (Q08499 1-745 isoform Q08499-6): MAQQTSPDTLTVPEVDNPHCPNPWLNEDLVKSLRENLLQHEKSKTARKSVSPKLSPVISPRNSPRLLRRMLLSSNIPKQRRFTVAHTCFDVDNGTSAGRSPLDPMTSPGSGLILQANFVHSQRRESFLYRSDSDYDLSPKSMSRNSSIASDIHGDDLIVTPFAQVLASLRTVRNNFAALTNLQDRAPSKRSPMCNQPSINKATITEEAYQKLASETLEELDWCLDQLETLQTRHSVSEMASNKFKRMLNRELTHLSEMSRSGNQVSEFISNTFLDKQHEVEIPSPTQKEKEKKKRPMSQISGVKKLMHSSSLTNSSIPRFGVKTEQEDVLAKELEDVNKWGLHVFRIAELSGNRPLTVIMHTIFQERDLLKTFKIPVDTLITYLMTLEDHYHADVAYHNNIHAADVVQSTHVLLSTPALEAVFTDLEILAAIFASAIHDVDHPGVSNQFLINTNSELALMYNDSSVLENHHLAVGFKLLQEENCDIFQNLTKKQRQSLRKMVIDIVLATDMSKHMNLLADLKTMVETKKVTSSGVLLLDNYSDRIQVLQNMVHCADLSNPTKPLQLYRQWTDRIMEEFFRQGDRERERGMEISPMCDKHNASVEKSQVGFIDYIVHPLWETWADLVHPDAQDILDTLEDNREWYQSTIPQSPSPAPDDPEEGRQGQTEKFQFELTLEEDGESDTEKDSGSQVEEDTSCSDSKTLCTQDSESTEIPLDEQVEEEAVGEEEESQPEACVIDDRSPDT
Experiment: PDE assay, [3H]cAMP hydrolysis by HEK-PDE4D5 cell lysate cytosol fraction
Assay type: biochemical
Conditions: 30 μM; mean % increase in counts over basal activity
Parameter: activation at 30 µM (%)

Examples with answers:
[[record]]
compound = "CCn1nc(-c2ccc(Cl)c(F)c2)nc1CC(=O)Nc1cc(C)on1"
tested_on = "PDE4D5 (Homo sapiens, UniProt Q08499)"
recorded_result = 38.5

[[record]]
compound = "CCn1nc(-c2ccc(Cl)c(F)c2)nc1CC(=O)N[C@@H]1c2ccccc2C[C@@H]1O"
tested_on = "PDE4D5 (Homo sapiens, UniProt Q08499)"
recorded_result = 49.8

[[record]]
compound = "COCCn1nc(-c2ccc(Cl)c(F)c2)nc1CC(=O)NCc1cc(Cl)cc(Cl)c1"
tested_on = "PDE4D5 (Homo sapiens, UniProt Q08499)"
recorded_result = 99.9

[[record]]
compound = "CCn1nc(-c2ccc(Cl)c(F)c2)nc1CC(=O)NC1Cc2ccccc2C1"
tested_on = "PDE4D5 (Homo sapiens, UniProt Q08499)"
recorded_result = 92.1

[[record]]
compound = "CCn1nc(-c2ccc(Cl)c(F)c2)nc1C(C)C(=O)NCc1cccc(F)c1 (centres unmarked)"
tested_on = "PDE4D5 (Homo sapiens, UniProt Q08499)"
recorded_result = 72.2

[[record]]
compound = "CCn1nc(-c2ccc(Cl)c(F)c2)nc1CC(=O)Nc1cnccn1"
tested_on = "PDE4D5 (Homo sapiens, UniProt Q08499)"
recorded_result = 49.6

[[record]]
compound = "CCn1nc(-c2ccc(Cl)c(OC(C)C)c2)nc1CC(=O)N[C@H]1CCc2ccccc21"
tested_on = "PDE4D5 (Homo sapiens, UniProt Q08499)"
recorded_result = 33

[[record]]
compound = "CCOC(=O)CCCn1nc(-c2ccc(Cl)c(F)c2)nc1CC(=O)NCc1cc(Cl)cc(Cl)c1"
tested_on = "PDE4D5 (Homo sapiens, UniProt Q08499)"
recorded_result = 155

[[record]]
compound = "CCn1nc(-c2ccc(Cl)c(F)c2)nc1CC(=O)NCc1cccc2cn[nH]c12"
tested_on = "PDE4D5 (Homo sapiens, UniProt Q08499)"
recorded_result = 32.2

[[record]]
compound = "Cn1nc(-c2ccc(Cl)c(F)c2)nc1CC(=O)NCc1cc(Cl)cc(Cl)c1"
tested_on = "PDE4D5 (Homo sapiens, UniProt Q08499)"
recorded_result = 77.8


1: CC(C)Oc1cc(-c2nc(CC(=O)N[C@H]3CCOc4ccccc43)n(C)n2)ccc1Cl
2: CCn1nc(-c2ccc(Cl)c(OC(C)C)c2)nc1CC(=O)NCc1ccc2[nH]ncc2c1
Hi, I'm comparing 1 with 2 and wondering which one has the bigger number for activation at 30 µM. Any idea? Your choice should be expressed through its label.
2

P: CCn1nc(-c2ccc(Cl)c(OCCOC)c2)nc1CC(=O)NCc1cc(Cl)cc(Cl)c1
Q: CC(C)Oc1cc(-c2nc(CC(=O)N[C@H]3CCc4ccccc43)n(C)n2)ccc1Cl
Form: Entry with minimum activation at 30 µM (choose one): P / Q Your choice should be expressed through its label.
Q
(Q: 45%, P: 82.3%)

a: CCn1nc(-c2ccc(Cl)c(OC)c2)nc1CC(=O)NCc1cc(Cl)cc(Cl)c1
b: CCn1nc(-c2ccc(Cl)c(OC(C)C)c2)nc1CC(=O)NCc1cccc(C#N)c1
Hi, I'm comparing a with b and wondering which one has the bigger number for activation at 30 µM. Any idea? Your choice should be expressed through its label.
a

---

Target: PDE4D5 (Homo sapiens, UniProt Q08499)
Construct: stably expressed the full-length human PDE4D5, PDE4B1 and PDE4A4 long isoforms; made in house
Experiment: PDE assay, [3H]cAMP hydrolysis by HEK-PDE4D5 cell lysate cytosol fraction
Assay type: biochemical
Details: 30 μM; mean % increase in counts over basal activity
Parameter: activation at 30 µM (%)

Examples with answers:
[[record]]
compound_structure_string = "CCn1nc(-c2ccc(Cl)c(F)c2)nc1CC(=O)N[C@H]1CCOc2ccccc21"
tested_on = "PDE4D5 (Homo sapiens, UniProt Q08499)"
unit = "%"
recorded_result = 55.3

[[record]]
compound_structure_string = "O=C(Cc1nc(-c2ccc(Cl)c(F)c2)nn1CC1CC1)N[C@H]1CCOc2ccc(Cl)cc21"
tested_on = "PDE4D5 (Homo sapiens, UniProt Q08499)"
unit = "%"
recorded_result = 79.1


1: CCn1nc(-c2ccc(Cl)c(F)c2)nc1C(F)(F)C(=O)NCc1ccc2[nH]c(C)nc2c1
2: CCn1nc(-c2ccc(Cl)c(OC(C)C)c2)nc1CC(=O)N[C@H]1CCOc2ccc(Cl)cc21
Form: Entry with minimum activation at 30 µM (choose one): 1 / 2 Your choice should be expressed through its label.
2
(2: 48.5%, 1: 73.8%)

---

Biological target: PDE4D5 (Homo sapiens, UniProt Q08499)
Construct: stably expressed the full-length human PDE4D5, PDE4B1 and PDE4A4 long isoforms; made in house
Test: PDE assay, [3H]cAMP hydrolysis by HEK-PDE4D5 cell lysate cytosol fraction
Type: biochemical
Conditions: 30 μM; mean % increase in counts over basal activity
Parameter: activation at 30 µM (%)

Examples with answers:
[[record]]
compound_structure_string = "COC(=O)Cn1nc(-c2ccc(Cl)c(F)c2)nc1CC(=O)NCc1cc(Cl)cc(Cl)c1"
parameter = "activation at 30 µM"
recorded_result = 97.2

[[record]]
compound_structure_string = "CCn1nc(-c2ccc(Cl)c(OC(C)C)c2)nc1CC(=O)N[C@H]1CCc2ncccc21"
parameter = "activation at 30 µM"
recorded_result = 40

[[record]]
compound_structure_string = "Cn1nc(-c2ccc(Cl)c(F)c2)nc1CC(=O)NCc1cccc(F)c1"
parameter = "activation at 30 µM"
recorded_result = 78.6

[[record]]
compound_structure_string = "O=C(Cc1nc(-c2ccc(Cl)c(F)c2)nn1CC1CC1)N[C@H]1CCc2ccccc21"
parameter = "activation at 30 µM"
recorded_result = 92

[[record]]
compound_structure_string = "CCn1nc(-c2ccc(Cl)c(OC(C)C)c2)nc1CC(=O)NCc1cc(Cl)cc(Cl)c1"
parameter = "activation at 30 µM"
recorded_result = 108


I: CCn1nc(-c2ccc(Cl)c(F)c2)nc1CC(=O)NCc1ccnc(C(F)(F)F)c1
II: CCn1nc(-c2ccc(Cl)c(F)c2)nc1CC(=O)NCc1cc(C)cc(F)c1
III: CCOc1cccc(CNC(=O)Cc2nc(-c3ccc(Cl)c(F)c3)nn2CC)c1
Order field: activation at 30 µM | Direction: descending (largest first) State the ranking by listing the labels in the requested order.
III, I, II

---

Biological target: PDE4B2 (Homo sapiens, UniProt Q07343)
Construct: the full length human PDE4B2 short isoform; made in house
Sequence (Q07343 1-564 isoform Q07343-2): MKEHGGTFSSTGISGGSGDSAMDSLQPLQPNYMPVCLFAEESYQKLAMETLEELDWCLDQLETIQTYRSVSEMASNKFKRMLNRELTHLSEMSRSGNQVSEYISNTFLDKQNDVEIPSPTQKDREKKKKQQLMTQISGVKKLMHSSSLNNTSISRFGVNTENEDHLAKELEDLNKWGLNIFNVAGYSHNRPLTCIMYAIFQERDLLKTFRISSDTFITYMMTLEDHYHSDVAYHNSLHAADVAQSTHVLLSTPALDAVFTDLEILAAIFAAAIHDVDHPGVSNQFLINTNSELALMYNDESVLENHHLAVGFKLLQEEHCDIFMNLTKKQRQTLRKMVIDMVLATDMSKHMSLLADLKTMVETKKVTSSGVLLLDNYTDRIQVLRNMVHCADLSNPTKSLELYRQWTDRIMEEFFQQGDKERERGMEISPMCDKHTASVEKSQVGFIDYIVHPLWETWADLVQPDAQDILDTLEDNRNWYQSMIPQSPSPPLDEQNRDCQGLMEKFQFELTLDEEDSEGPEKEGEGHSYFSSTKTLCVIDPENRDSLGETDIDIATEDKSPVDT
Assay: PDE assay, [3H]cAMP hydrolysis by HEK-PDE4B2 cell lysate cytosol fraction (short form)
Assay type: biochemical
Settings: mean % increase in counts over basal activity
Parameter: % increase in PDE4B2 activity at 30 μM (%)

P: CCn1nc(-c2ccc(Cl)c(OC(C)C)c2)nc1CC(=O)N[C@H]1CCOc2ccc(Cl)cc21
Q: CCn1nc(-c2ccc(Cl)c(F)c2)nc1CC(=O)NCc1cc(C)nc(C)c1
R: CCn1nc(-c2ccc(Cl)c(OC(C)C)c2)nc1CC(=O)NCc1cc(Cl)cc(Cl)c1
Kindly sort the 3 compounds above from the smallest to the largest % increase in PDE4B2 activity at 30 μM. State the ranking by listing the labels in the requested order.
Q, R, P

a: COCCn1nc(-c2ccc(Cl)c(F)c2)nc1CC(=O)NCc1cc(Cl)cc(Cl)c1
b: CCn1nc(-c2ccc(Cl)c(OCCOC)c2)nc1CC(=O)NCc1cc(Cl)cc(Cl)c1
c: CCn1nc(-c2ccc(Cl)c(OC)c2)nc1CC(=O)NCc1cc(Cl)cc(Cl)c1
Order field: % increase in PDE4B2 activity at 30 μM | Direction: descending (largest first) State the ranking by listing the labels in the requested order.
c, a, b
(c: 3.4%, a: −2.9%, b: −9.4%)

---

Biological target: PDE4D5 (Homo sapiens, UniProt Q08499)
Construct: stably expressed the full-length human PDE4D5, PDE4B1 and PDE4A4 long isoforms; made in house
Test: PDE assay, [3H]cAMP hydrolysis by HEK-PDE4D5 cell lysate cytosol fraction
Assay type: biochemical
Details: 30 μM; mean % increase in counts over basal activity
Parameter: activation at 30 µM (%)

Examples with answers:
[[record]]
compound_structure_string = "COc1cccc(CNC(=O)Cc2nc(-c3ccc(Cl)c(F)c3)nn2C)c1"
parameter = "activation at 30 µM"
recorded_result = 87.8

[[record]]
compound_structure_string = "CCn1nc(-c2ccc(Cl)c(F)c2)nc1CC(=O)NCc1cc(C)cc(C)c1"
parameter = "activation at 30 µM"
recorded_result = 71.6

[[record]]
compound_structure_string = "CCn1nc(-c2ccc(C#N)cc2)nc1CC(=O)NCc1cc(Cl)cc(Cl)c1"
parameter = "activation at 30 µM"
recorded_result = 45.9


I: CCn1nc(-c2ccc(Cl)c(F)c2)nc1CC(=O)NCc1cc(OC)cc(OC)c1
II: CCn1nc(-c2ccc(Cl)c(F)c2)nc1CC(=O)NCc1ccc(OC)nc1
Hi, I'm comparing I with II and wondering which one has the bigger number for activation at 30 µM. Any idea? Your choice should be expressed through its label.
I
(I: 61.5%, II: 26.8%)
